assay: total protein half-life in vivo (active degradation + dilution); higher = more stable protein; details: wild type E. coli NCM3722; growth: N-lim chemostat; doubling time 12 h
The recorded total protein half-life in vivo of each item maps onto one of these classes: low (below 3 h), middle (3 h to below 10 h), high (10 h or more)

INSERT INTO measurements (chain, categorylabel) VALUES
  ('MSSEKLYSPLKVGAITAANRIFMAPLTRLRSIEPGDIPTPLMAEYYRQRASAGLIISEATQISAQAKGYAGAPGIHSPEQIAAWKKITAGVHAENGHMAVQLWHTGRISHASLQPGGQAPVAPSALSAGTRTSLRDENGQAIRVETSMPRALELEEIPGIVNDFRQAIANAREAGFDLVELHSAHGYLLHQFLSPSSNHRTDQYGGSVENRARLVLEVVDAGIEEWGADRIGIRVSPIGTFQNTDNGPNEEADALYLIEQLGKRGIAYLHMSEPDWAGGEPYTDAFREKVRARFHGPIIGAGAYTVEKAETLIGKGLIDAVAFGRDWIANPDLVARLQRKAELNPQRAESFYGGGAEGYTDYPTL', 'low'),
  ('MMKNILAIQSHVVYGHAGNSAAEFPMRRLGANVWPLNTVQFSNHTQYGKWTGCVMPPSHLTEIVQGIAAIDKLHTCDAVLSGYLGSAEQGEHILGIVRQVKAANPQAKYFCDPVMGHPEKGCIVAPGVAEFHVRHGLPASDIIAPNLVELEILCEHAVNNVEEAVLAARELIAQGPQIVLVKHLARAGYSRDRFEMLLVTADEAWHISRPLVDFGMRQPVGVGDVTSGLLLVKLLQGATLQEALEHVTAAVYEIMVTTKAMQEYELQVVAAQDRIAKPEHYFSATKL', 'low'),
  ('MKLISNDLRDGDKLPHRHVFNGMGYDGDNISPHLAWDDVPAGTKSFVVTCYDPDAPTGSGWWHWVVVNLPADTRVLPQGFGSGLVAMPDGVLQTRTDFGKTGYDGAAPPKGETHRYIFTVHALDIERIDVDEGASGAMVGFNVHFHSLASASITAMFS', 'high'),
  ('MGQLIDGVWHDTWYDTKSTGGKFQRSASAFRNWLTADGAPGPTGTGGFIAEKDRYHLYVSLACPWAHRTLIMRKLKGLEPFISVSVVNPLMLENGWTFDDSFPGATGDTLYQNEFLYQLYLHADPHYSGRVTVPVLWDKKNHTIVSNESAEIIRMFNTAFDALGAKAGDYYPPALQTKIDELNGWIYDTVNNGVYKAGFATSQEAYDEAVAKVFESLARLEQILGQHRYLTGNQLTEADIRLWTTLVRFDPVYVTHFKCDKHRISDYLNLYGFLRDIYQMPGIAETVNFDHIRNHYFRSHKTINPTGIISIGPWQDLDEPHGRDVRFG', 'middle'),
  ('MMELMVVHPHIFWLSLGGLLLAAEMLGGNGYLLWSGVAAVITGLVVWLVPLGWEWQGVMFAILTLLAAWLWWKWLSRRVREQKHSDSHLNQRGQQLIGRRFVLESPLVNGRGHMRVGDSSWPVSASEDLGAGTHVEVIAIEGITLHIRAVSS [P0AAS3]', 'high'),
  ('MSEQLTDQVLVERVQKGDQKAFNLLVVRYQHKVASLVSRYVPSGDVPDVVQEAFIKAYRALDSFRGDSAFYTWLYRIAVNTAKNYLVAQGRRPPSSDVDAIEAENFESGGALKEISNPENLMLSEELRQIVFRTIESLPEDLRMAITLRELDGLSYEEIAAIMDCPVGTVRSRIFRAREAIDNKVQPLIRR [P0AGB6]', 'high'),
  ('MKLDEIARLAGVSRTTASYVINGKAKQYRVSDKTVEKVMAVVREHNYHPNAVAAGLRAGRTRSIGLVIPDLENTSYTRIANYLERQARQRGYQLLIACSEDQPDNEMRCIEHLLQRQVDAIIVSTSLPPEHPFYQRWANDPFPIVALDRALDREHFTSVVGADQDDAEMLAEELRKFPAETVLYLGALPELSVSFLREQGFRTAWKDDPREVHFLYANSYEREAAAQLFEKWLETHPMPQALFTTSFALLQGVMDVTLRRDGKLPSDLAIATFGDNELLDFLQCPVLAVAQRHRDVAERVLEIVLASLDEPRKPKPGLTRIKRNLYRRGVLSRS [P0ACP1]', 'high'),
  ('MQERHTEQDYRALLIADTPIIDVRAPIEFEHGAMPAAINLPLMNNDERAAVGTCYKQQGSDAALALGHKLVAGEIRQQRMDAWRAACLQNPQGILCCARGGQRSHIVQSWLHAAGIDYPLVEGGYKALRQTAIQATIELAQKPIVLIGGCTGSGKTLLVQQQPNGVDLEGLARHRGSAFGRTLQPQLSQASFENLLAAEMLKTDARQNLRLWVLEDESRMIGSNHLPECLRERMTQAAIAVVEDPFEIRLERLNEEYFLRMHHDFTHAYGDEQGWQEYCEYLHHGLSAIKRRLGLQRYNELAARLDAALTTQLTTGSTDGHLAWLVPLLEEYYDPMYRYQLEKKAEKVVFRGEWAEVAEWVKAR', 'middle'),
  ('MMMGEVQSLPSAGLHPALQDALTLALAARPQEKAPGRYELQGDNIFMNVMTFNTQSPVEKKAELHEQYIDIQLLLNGEERILFGMAGTARQCEEFHHEDDYQLCSTIDNEQAIILKPGMFAVFMPGEPHKPGCVVGEPGEIKKVVVKVKADLMA', 'middle'),
  ('MAKHLFTSESVSEGHPDKIADQISDAVLDAILEQDPKARVACETYVKTGMVLVGGEITTSAWVDIEEITRNTVREIGYVHSDMGFDANSCAVLSAIGKQSPDINQGVDRADPLEQGAGDQGLMFGYATNETDVLMPAPITYAHRLVQRQAEVRKNGTLPWLRPDAKSQVTFQYDDGKIVGIDAVVLSTQHSEEIDQKSLQEAVMEEIIKPILPAEWLTSATKFFINPTGRFVIGGPMGDCGLTGRKIIVDTYGGMARHGGGAFSGKDPSKVDRSAAYAARYVAKNIVAAGLADRCEIQVSYAIGVAEPTSIMVETFGTEKVPSEQLTLLVREFFDLRPYGLIQMLDLLHPIYKETAAYGHFGREHFPWEKTDKAQLLRDAAGLK [P0A817]', 'low'),
  ('MSDTNYAVIYDLHSHTTASDGCLTPEALVHRAVEMRVGTLAITDHDTTAAIAPAREEISRSGLALNLIPGVEISTVWENHEIHIVGLNIDITHPLMCEFLAQQTERRNQRAQLIAERLEKAQIPGALEGAQRLAQGGAVTRGHFARFLVECGKASSMADVFKKYLARGKTGYVPPQWCTIEQAIDVIHHSGGKAVLAHPGRYNLSAKWLKRLVAHFAEHHGDAMEVAQCQQSPNERTQLAALARQHHLWASQGSDFHQPCPWIELGRKLWLPAGVEGVWQLWEQPQNTTEREL', 'low');
